Source of measurements: ChEMBL document CHEMBL5608173

- Tested on: Isocitrate dehydrogenase [NADP] cytoplasmic (Homo sapiens), O75874 [R132H]
- Sequence (O75874 whole entry R132H): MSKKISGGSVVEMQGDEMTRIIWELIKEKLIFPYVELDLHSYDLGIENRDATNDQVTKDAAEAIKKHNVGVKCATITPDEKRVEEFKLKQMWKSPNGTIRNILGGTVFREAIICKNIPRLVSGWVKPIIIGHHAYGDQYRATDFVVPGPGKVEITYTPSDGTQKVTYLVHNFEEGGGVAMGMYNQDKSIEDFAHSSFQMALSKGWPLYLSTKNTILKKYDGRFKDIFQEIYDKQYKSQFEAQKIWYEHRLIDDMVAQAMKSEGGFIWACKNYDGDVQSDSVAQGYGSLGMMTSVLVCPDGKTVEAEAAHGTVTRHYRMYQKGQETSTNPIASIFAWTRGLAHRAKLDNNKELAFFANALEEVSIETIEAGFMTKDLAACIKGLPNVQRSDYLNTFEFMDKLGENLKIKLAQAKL
- measurementNotes: Inhibition of recombinant human IDH1 R132H mutant extracted from Escherichia coli BL21 (DE3) cells using alpha-ketoglutarate as substrate at 2 uM incubated for 60 mins in presence of NADPH by absorbance based assay relative to control
quantityMeasured: inhibition

Consider the worked cases shown below.
{"smilesEntry": "COc1cc(O)c(-c2cc(-c3ccc(O)cc3)nc(C(C)(C)C)n2)cc1CC=C(C)C", "recordedResult": "60.4%"}
{"smilesEntry": "COc1cc(O)c(-c2cc(-c3ccc(O)cc3)nc(-c3cnccn3)n2)cc1CC=C(C)C", "recordedResult": "81.8%"}
{"smilesEntry": "COc1cc(O)c(-c2cc(-c3ccc(O)cc3)nc(N3CCCCC3)n2)cc1CC=C(C)C", "recordedResult": "93.6%"}

Proceeding to the next compound to report its inhibition.
Query string: Entry COc1cc(O)c(-c2cc(-c3ccc(O)cc3)nc(N)n2)cc1CC=C(C)C : reported inhibition = ?
Result string: 30.7%
